- target_system: von Hippel-Lindau disease tumor suppressor/SWI/SNF-related matrix-associated actin-dependent regulator of chromatin subfamily A member 2 (Homo sapiens, UniProt P51531+P40337)
- Sequence (P51531 whole entry, the tested form may be a part): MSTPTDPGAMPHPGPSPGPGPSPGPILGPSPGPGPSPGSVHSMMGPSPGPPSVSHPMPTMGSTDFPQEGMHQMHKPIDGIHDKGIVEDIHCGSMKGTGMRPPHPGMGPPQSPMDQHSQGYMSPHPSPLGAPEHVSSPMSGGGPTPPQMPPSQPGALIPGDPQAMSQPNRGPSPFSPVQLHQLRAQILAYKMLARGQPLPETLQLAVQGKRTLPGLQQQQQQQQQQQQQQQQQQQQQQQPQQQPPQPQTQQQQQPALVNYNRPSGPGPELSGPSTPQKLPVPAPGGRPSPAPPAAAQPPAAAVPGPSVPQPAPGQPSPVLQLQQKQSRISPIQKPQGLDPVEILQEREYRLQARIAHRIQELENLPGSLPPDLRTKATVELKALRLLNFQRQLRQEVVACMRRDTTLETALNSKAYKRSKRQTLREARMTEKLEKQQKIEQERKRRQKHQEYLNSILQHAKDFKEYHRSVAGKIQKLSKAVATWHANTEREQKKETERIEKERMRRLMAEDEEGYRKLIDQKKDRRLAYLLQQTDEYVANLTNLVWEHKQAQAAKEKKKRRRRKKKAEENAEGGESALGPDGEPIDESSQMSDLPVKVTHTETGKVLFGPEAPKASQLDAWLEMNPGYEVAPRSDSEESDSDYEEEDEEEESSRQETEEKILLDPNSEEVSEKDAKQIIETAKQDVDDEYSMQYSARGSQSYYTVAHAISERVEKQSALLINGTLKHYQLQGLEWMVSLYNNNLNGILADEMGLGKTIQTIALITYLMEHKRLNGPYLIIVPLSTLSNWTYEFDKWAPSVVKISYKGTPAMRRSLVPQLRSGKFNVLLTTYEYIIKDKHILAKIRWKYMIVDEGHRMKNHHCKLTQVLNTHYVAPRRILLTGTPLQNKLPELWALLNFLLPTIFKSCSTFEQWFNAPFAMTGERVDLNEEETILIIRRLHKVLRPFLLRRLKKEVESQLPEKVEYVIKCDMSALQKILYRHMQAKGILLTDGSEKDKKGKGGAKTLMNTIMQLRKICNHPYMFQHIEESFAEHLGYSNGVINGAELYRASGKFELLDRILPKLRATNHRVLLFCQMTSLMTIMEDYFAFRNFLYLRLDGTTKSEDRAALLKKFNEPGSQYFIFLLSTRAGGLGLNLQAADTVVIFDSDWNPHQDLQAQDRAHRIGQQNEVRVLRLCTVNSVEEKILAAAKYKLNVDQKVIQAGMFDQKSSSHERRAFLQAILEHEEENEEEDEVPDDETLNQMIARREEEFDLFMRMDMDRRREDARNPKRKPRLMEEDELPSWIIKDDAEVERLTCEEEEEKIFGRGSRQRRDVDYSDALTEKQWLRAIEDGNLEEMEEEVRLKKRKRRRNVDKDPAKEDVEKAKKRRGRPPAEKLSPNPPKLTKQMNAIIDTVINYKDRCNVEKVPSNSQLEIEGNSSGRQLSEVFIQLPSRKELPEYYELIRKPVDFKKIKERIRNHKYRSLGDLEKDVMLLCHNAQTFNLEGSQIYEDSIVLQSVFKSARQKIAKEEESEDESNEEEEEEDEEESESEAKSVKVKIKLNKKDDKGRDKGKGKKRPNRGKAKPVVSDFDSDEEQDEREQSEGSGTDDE
- Sequence (P40337 whole entry, the tested form may be a part): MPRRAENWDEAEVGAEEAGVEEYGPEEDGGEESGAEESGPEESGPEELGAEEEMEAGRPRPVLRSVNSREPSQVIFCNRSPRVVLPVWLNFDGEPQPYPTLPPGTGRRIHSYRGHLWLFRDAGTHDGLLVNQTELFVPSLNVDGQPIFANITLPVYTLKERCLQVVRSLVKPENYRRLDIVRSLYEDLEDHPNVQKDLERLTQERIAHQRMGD
- test_description: PROTAC activity at VHL/C-terminal HiBiT fused SMARCA2 in human HeLa cells assessed as induction of SMARCA2 degradation incubated for 24 hrs by Nano-Glo HiBiT analysis
- Type: cell-based
Items are presented alongside their recorded DC50.
Write your answer as a measured quantity: the number, then the unit.

Cc1cc([C@H](C(=O)N2C[C@H](O)C[C@H]2C(=O)N[C@@H](CC(=O)NCCCCCCCCCCn2cc(-c3cc(-c4ccccc4O)nnc3N)cn2)c2ccc(-c3scnc3C)cc2)C(C)C)on1 | 37 nM
Cc1ncsc1-c1ccc([C@H](C)NC(=O)[C@@H]2C[C@@H](O)CN2C(=O)[C@@H](NC(=O)CCCCn2cc(-c3cc(-c4ccccc4O)nnc3N)cn2)C(C)(C)C)cc1 | 134 nM
Cc1ncsc1-c1ccc([C@H](C)NC(=O)[C@@H]2C[C@@H](O)CN2C(=O)[C@@H](NC(=O)CCCn2cc(-c3cc(-c4ccccc4O)nnc3N)cn2)C(C)(C)C)cc1 | 132 nM

Q: Value lookup for DC50; key = "Cc1ncsc1-c1ccc([C@H](C)NC(=O)[C@@H]2C[C@@H](O)CN2C(=O)[C@@H](c2cc(N3CCC(CN4CCC(O[C@H]5C[C@H](Oc6cccc(CN7C8CCC7CN(c7cc(-c9ccccc9O)nnc7N)C8)c6)C5)CC4)CC3)no2)C(C)C)cc1"
Ans: 0.12 nM

Q: Please do the same for "Cc1ncsc1-c1ccc([C@H](C)NC(=O)[C@@H]2C[C@@H](O)CN2C(=O)[C@@H](NC(=O)COCCOCCOCCn2cc(-c3cc(-c4ccccc4O)nnc3N)cn2)C(C)C)cc1" as well.
Ans: 455 nM

###

Items are presented alongside their recorded DC50.
- target_system: von Hippel-Lindau disease tumor suppressor/SWI/SNF-related matrix-associated actin-dependent regulator of chromatin subfamily A member 2 (Homo sapiens, UniProt P51531+P40337)
- test_description: PROTAC activity at VHL/C-terminal HiBiT fused SMARCA2 in human HeLa cells assessed as induction of SMARCA2 degradation incubated for 24 hrs by Nano-Glo HiBiT analysis
- Assay type: cell-based
Report only the number, with the unit nM understood.

Worked examples, 2 compounds total:
Cc1ncsc1-c1ccc([C@H](C)NC(=O)[C@@H]2C[C@@H](O)CN2C(=O)[C@@H](NC(=O)[C@H]2CC[C@H](CN3CCC4(CCC(n5cc(-c6cc(-c7ccccc7O)nnc6N)cn5)CC4)CC3)CC2)C(C)(C)C)cc1 | 5
Cc1ncsc1-c1ccc([C@H](C)NC(=O)[C@@H]2C[C@@H](O)CN2C(=O)[C@@H](NC(=O)CCCCCCCn2cc(-c3cc(-c4ccccc4O)nnc3N)cn2)C(C)(C)C)cc1 | 3

Proceed to the following item.
Q: Value lookup for DC50; key = "Cc1cc([C@H](C(=O)N2C[C@H](O)C[C@H]2C(=O)N[C@@H](CC(=O)NCCCCCCCn2cc(-c3cc(-c4ccccc4O)nnc3N)cn2)c2ccc(-c3scnc3C)cc2)C(C)C)on1"
Ans: 96

###

- target_system: von Hippel-Lindau disease tumor suppressor/SWI/SNF-related matrix-associated actin-dependent regulator of chromatin subfamily A member 2 (Homo sapiens, UniProt P51531+P40337)
- test_description: PROTAC activity at VHL/C-terminal HiBiT fused SMARCA2 in human HeLa cells assessed as induction of SMARCA2 degradation incubated for 24 hrs by Nano-Glo HiBiT analysis
- Format: cell-based
Items are presented alongside their recorded DC50.
Report only the number, with the unit nM understood.

Cc1ncsc1-c1ccc([C@H](C)NC(=O)[C@@H]2C[C@@H](O)CN2C(=O)[C@@H](NC(=O)C2CCC(N3CC4(CCC(n5cc(-c6cc(-c7ccccc7O)nnc6N)cn5)CC4)C3)CC2)C(C)(C)C)cc1 (stereo partly drawn) | 25

Q: Value lookup for DC50; key = "Cc1ncsc1-c1ccc([C@H](C)NC(=O)[C@@H]2C[C@@H](O)CN2C(=O)[C@@H](NC(=O)CCCCCCCCCCn2cc(-c3cc(-c4ccccc4O)nnc3N)cn2)C(C)(C)C)cc1"
Ans: 6
